Test system: Carnobacterium divergens
experiment_summary: Activity of Carnobacterium divergens BM4489 penicillinase Cad-1 at 1 uM enzyme concentration assessed as initial rate of hydrolysis by spectrophotometer
Calls of active or inactive are those of the source. The calls are words filed in the database; no cut-off is given here.
Your answer must be one of the following: t for active, f for inactive

1. CC(C)(O/N=C(\C(=O)N[C@@H]1C(=O)N2C(C(=O)[O-])=C(C[n+]3ccccc3)CS[C@H]12)c1csc(N)n1)C(=O)O :: f
2. CO/N=C(\C(=O)N[C@@H]1C(=O)N2C(C(=O)O)=C(COC(C)=O)CS[C@H]12)c1csc(N)n1 :: f

Qu. Test call for this compound, please: `CO/N=C(\C(=O)N[C@@H]1C(=O)N2C(C(=O)[O-])=C(C[N+]3(C)CCCC3)CS[C@H]12)c1csc(N)n1`
Ans. f

Qu. Test call for this compound, please: `CO/N=C(\C(=O)N[C@@H]1C(=O)N2C(C(=O)O)=C(COC(N)=O)CS[C@H]12)c1ccco1`
Ans. f

Qu. Test call for this compound, please: `CO[C@@]1(NC(=O)Cc2cccs2)C(=O)N2C(C(=O)O)=C(COC(N)=O)CS[C@@H]21`
Ans. f

Qu. Test call for this compound, please: `C[C@H]1[C@H](NC(=O)/C(=N\OC(C)(C)C(=O)O)c2csc(N)n2)C(=O)N1S(=O)(=O)O`
Ans. t
